Here the recorded pIC50 is given for each entry.
target: MTP (Homo sapiens)
Sequence (P55157 19-894, species assumed): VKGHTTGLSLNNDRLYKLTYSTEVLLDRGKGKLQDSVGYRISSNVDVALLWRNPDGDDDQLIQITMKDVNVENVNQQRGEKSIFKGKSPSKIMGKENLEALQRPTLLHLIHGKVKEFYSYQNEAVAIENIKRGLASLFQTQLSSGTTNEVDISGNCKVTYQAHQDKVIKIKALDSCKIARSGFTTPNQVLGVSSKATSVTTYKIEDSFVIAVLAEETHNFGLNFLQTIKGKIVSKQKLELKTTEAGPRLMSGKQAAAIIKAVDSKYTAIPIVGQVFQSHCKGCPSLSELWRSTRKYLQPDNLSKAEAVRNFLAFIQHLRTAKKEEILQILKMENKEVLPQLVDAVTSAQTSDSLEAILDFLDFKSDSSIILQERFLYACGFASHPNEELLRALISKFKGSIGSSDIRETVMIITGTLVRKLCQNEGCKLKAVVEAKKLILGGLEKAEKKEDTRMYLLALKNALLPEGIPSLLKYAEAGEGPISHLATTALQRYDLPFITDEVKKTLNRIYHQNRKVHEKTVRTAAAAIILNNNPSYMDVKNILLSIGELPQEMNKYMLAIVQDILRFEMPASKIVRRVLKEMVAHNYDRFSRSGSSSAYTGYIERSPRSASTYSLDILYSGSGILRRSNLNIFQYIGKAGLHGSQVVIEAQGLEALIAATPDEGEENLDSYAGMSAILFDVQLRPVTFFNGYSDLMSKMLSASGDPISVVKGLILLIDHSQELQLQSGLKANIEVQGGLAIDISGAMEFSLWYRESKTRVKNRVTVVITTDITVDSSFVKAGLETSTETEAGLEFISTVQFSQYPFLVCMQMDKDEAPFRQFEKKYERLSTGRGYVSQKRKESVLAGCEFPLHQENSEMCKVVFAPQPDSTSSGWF
Sequence (P07237 18-508 partner, species assumed): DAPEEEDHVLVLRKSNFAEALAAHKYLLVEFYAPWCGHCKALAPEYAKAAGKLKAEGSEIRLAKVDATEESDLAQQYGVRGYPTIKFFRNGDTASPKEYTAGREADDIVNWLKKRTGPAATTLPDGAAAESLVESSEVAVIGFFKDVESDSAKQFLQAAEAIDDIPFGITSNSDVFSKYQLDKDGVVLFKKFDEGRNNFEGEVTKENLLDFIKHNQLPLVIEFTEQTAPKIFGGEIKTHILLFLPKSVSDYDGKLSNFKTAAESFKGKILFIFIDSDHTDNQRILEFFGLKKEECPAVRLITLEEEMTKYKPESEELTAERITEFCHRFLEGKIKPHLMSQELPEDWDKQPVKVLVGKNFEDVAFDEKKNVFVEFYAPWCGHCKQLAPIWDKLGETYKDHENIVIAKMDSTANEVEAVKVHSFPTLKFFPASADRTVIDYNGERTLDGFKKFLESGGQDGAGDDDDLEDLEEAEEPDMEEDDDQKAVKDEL
Bear in mind: pIC50 is minus log10 of a mol/L concentration; give just that figure.

Consider the reported pIC50 for these compounds:
| compound | result |
| --- | --- |
| COC(=O)[C@H](CCCCNC(=O)OC(C)(C)C)NC(=O)[C@@]1(c2ccccc2)CC[C@H](C(=O)N2CCC(NC(=O)c3cccn(C)c3=O)CC2)c2ccccc21 | 6.88 |
| CCCOC(=O)CCCNC(=O)[C@@]1(c2ccccc2)CC[C@H](C(=O)N2CCC(NC(=O)c3ccccc3OC)CC2)c2ccccc21 | 8.58 |
| COC(=O)[C@]1(c2ccccc2)CC[C@@H](C(=O)N2CCC(NC(=O)c3cc(OC)ccc3OCC(F)(F)F)CC2)c2ccccc21 | 8.02 |
| COc1ccccc1C(=O)NC1CCN(C(=O)[C@H]2CC[C@](C(N)=O)(c3ccccc3)c3ccccc32)CC1 | 5.11 |
| CCOC(=O)[C@@H](NC(=O)[C@@]1(c2ccccc2)CC[C@H](C(=O)N2CCC(NC(=O)c3cccn(C)c3=O)CC2)c2ccccc21)c1ccccc1 | 5.95 |
| COc1ccccc1C(=O)NC1CCN(C(=O)[C@H]2CC[C@@](C(=O)N[C@@H](CCC(=O)O)C(=O)O)(c3ccccc3)c3ccccc32)CC1 | 5.32 |
| CCOC(=O)[C@H](NC(=O)[C@@]1(c2ccccc2)CC[C@H](C(=O)N2CCC(NC(=O)c3ccccc3OC)CC2)c2ccccc21)c1ccccc1 | 7.48 |
| COC(=O)[C@H](CCCCNC(=O)OC(C)(C)C)NC(=O)[C@@]1(c2ccccc2)CC[C@H](C(=O)N2CCC(NC(=O)c3ccccc3OC)CC2)c2ccccc21 | 8.65 |
| COc1ccccc1C(=O)NC1CCN(C(=O)[C@H]2CC[C@@](C(=O)NCCCC(=O)OC(C)C)(c3ccccc3)c3ccccc32)CC1 | 8.75 |
| COC(=O)CCCCCNC(=O)[C@@]1(c2ccccc2)CC[C@H](C(=O)N2CCC(NC(=O)c3cccn(C)c3=O)CC2)c2ccccc21 | 6.51 |

Which pIC50 is reported with MTP (Homo sapiens) for this entry: `CCOC(=O)[C@@H](CCCCNC(=O)OC(C)C)NC(=O)[C@@]1(c2ccccc2)CC[C@H](C(=O)N2CCC(NC(=O)c3ccccc3OC)CC2)c2ccccc21` ?
8.73

# query: pIC50 | item `CCOC(=O)[C@@H](NC(=O)[C@@]1(c2ccccc2)CC[C@H](C(=O)N2CCC(NC(=O)c3ccccc3OC)CC2)c2ccccc21)C(C)C` | system: MTP (Homo sapiens)
7.75

Give the reported pIC50 for `COc1ccccc1C(=O)NC1CCN(C(=O)[C@H]2CC[C@@](C(=O)N[C@@H](C)C(=O)OC(C)(C)C)(c3ccccc3)c3ccccc32)CC1` (system: MTP (Homo sapiens)).
8.38

Query pIC50 on MTP (Homo sapiens) for `Cn1cccc(C(=O)NC2CCN(C(=O)[C@H]3CC[C@@](C(=O)N[C@@H](CCCCNC(=O)OC(C)(C)C)C(=O)OC(C)(C)C)(c4ccccc4)c4ccccc43)CC2)c1=O`
7.47

Form: Entry = `CC(C)OC(=O)CCNC(=O)[C@@]1(c2ccccc2)CC[C@H](C(=O)N2CCC(NC(=O)c3ccccc3N3CCN(C)CC3)CC2)c2ccccc21` | System = MTP (Homo sapiens) | pIC50 = ____
8.46

Give the reported pIC50 for `CCOC(=O)NCCCC[C@@H](NC(=O)[C@@]1(c2ccccc2)CC[C@H](C(=O)N2CCC(NC(=O)c3cccn(C)c3=O)CC2)c2ccccc21)C(=O)OC` (system: MTP (Homo sapiens)).
5.63

Field: pIC50 (MTP (Homo sapiens)). Entry: `Cn1cccc(C(=O)NC2CCN(C(=O)[C@H]3CC[C@@](C(=O)N[C@H](Cc4ccccc4)C(=O)OC(C)(C)C)(c4ccccc4)c4ccccc43)CC2)c1=O`
5.88

Form field - read-out: pIC50; system: MTP (Homo sapiens); submitted item: CCNC(=O)[C@@]1(c2ccccc2)CC[C@H](C(=O)N2CCC(NC(=O)c3ccccc3OC)CC2)c2ccccc21 (single isomer, unassigned)
8.52

For the record COc1ccccc1C(=O)NC1CCN(C(=O)[C@H]2CC[C@@](C(=O)N3CCCC3C(=O)OC(C)(C)C)(c3ccccc3)c3ccccc32)CC1 (some centres unmarked) , what value of pIC50 is listed for MTP (Homo sapiens)?
6.68

Field: pIC50 (MTP (Homo sapiens)). Entry: `COC(=O)CCNC(=O)[C@@]1(c2ccccc2)CC[C@H](C(=O)N2CCC(NC(=O)c3ccccc3OC)CC2)c2ccccc21`
8.54
